// provenance: patent US20240132480A1

assayed-target: Mtb Lpd (Mycobacterium tuberculosis (strain ATCC 25618 / H37Rv), UniProt P9WHH9)
Assay type: biochemical
conditions: read-out: LPD IC50
pIC50: −log10 of the molar value.
Lab note: anything with pIC50 at or over 7 counts as yes (1); the rest go in no (0).

Cc1cc(S(=O)(=O)N(C)CC(=O)Nc2ccn(C3CCOCC3)c(=O)c2)c2[nH]ncc2c1 :: yes (1)
Cc1cc(S(=O)(=O)N(C)CC(=O)Nc2ccc(C3CCN(C4COC4)CC3)c(Cl)c2)c2[nH]ncc2c1 :: yes (1)
Cc1cc(S(=O)(=O)N(C)CC(=O)Nc2ccc3c(c2)OCCN3C(C)C)c2n[nH]cc2c1 :: yes (1)
Cc1cc(S(=O)(=O)N2CCC[C@@H](C(=O)Nc3ccc4c(c3)OCCN4C3COC3)C2)c2[nH]ncc2c1 :: yes (1)
Cc1cc(S(=O)(=O)N2CCC[C@H]2C(=O)Nc2ccc(N3CCOCC3)c(Cl)c2)c2[nH]ncc2c1 :: yes (1)
Cc1cc(S(=O)(=O)N2CC[C@H]2C(=O)Nc2ccn3nccc3c2)c2[nH]ncc2c1 :: yes (1)
COc1ccc(CNC(=O)CN(C)S(=O)(=O)c2cc(C)cc3c[nH]nc23)cc1 :: yes (1)
Cc1cc(S(=O)(=O)N(C)CC(=O)NC2CCCN(C)C2)c2n[nH]cc2c1 (stereo not shown) :: no (0)
Cc1cc(S(=O)(=O)N2CC[C@H]2C(=O)N[C@H]2CCCOC2)c2[nH]ncc2c1 :: no (0)
Cc1cc(S(=O)(=O)N2CC[C@@H](C(=O)Nc3ccc4c(c3)OCCN4C3COC3)C2)c2[nH]ncc2c1 :: yes (1)
Cc1cc(S(=O)(=O)N2CCC2C(=O)Nc2ccc(OCCN(C)C)c(C)c2)c2[nH]c(C#N)cc2c1 (stereo not shown) :: no (0)
COc1ccc(NC(=O)CN(C)S(=O)(=O)c2cc(C)cc3c[nH]nc23)nc1 :: yes (1)
Cc1cccc(CNC(=O)CN(C)S(=O)(=O)c2cc(C)cc3c[nH]nc23)c1 :: yes (1)
